targetSystem: L. blandensis dGTPase (WT) (Leeuwenhoekiella blandensis, UniProt A3XHN1)
protocolSummary: Enzyme-coupled dGTPase activity assay, WT enzyme
readout: EC50

>>> resultvalue("Nc1ncnc2c1ncn2[C@H]1C[C@H](O)[C@@H](COP(=O)(O)OP(=O)(O)OP(=O)(O)O)O1 [dATP]")
"36 µM"

---

targetSystem: L. blandensis dGTPase V74Q (Leeuwenhoekiella blandensis, UniProt A3XHN1, V74Q)
Sequence (A3XHN1 3-442 V74Q): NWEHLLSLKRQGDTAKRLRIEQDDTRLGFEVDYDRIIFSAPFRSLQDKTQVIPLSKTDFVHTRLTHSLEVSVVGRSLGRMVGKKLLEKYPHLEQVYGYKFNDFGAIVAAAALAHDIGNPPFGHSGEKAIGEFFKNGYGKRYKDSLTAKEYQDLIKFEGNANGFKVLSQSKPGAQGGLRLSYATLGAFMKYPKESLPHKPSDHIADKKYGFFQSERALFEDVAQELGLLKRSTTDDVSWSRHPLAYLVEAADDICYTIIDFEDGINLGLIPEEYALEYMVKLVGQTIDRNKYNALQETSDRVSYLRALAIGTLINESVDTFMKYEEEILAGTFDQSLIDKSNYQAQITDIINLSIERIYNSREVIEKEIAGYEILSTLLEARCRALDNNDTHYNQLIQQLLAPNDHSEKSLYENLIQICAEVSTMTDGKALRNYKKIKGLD
protocolSummary: Enzyme-coupled dGTPase activity assay, V74Q mutant
readout: EC50 (µM)

>>> resultvalue("Nc1ncnc2c1ncn2[C@H]1C[C@H](O)[C@@H](COP(=O)(O)OP(=O)(O)OP(=O)(O)O)O1")
180
